Reported Wound without probe % values for a set of substances
# Tested on: day 7 skin wound
# assay-method-text: In vivo playoff of custom-made phage library with microdialysis recovery and HTS in rat skin wound model
# protocol-conditions: share of HTS reads in wound tissue after 1 h circulation and perfusion
quantity: Wound without probe % (%)

> print(dat)
                                  substance               quantity  quantitative.result
1  CNGSALPVC [T7 phage clone of the custom-made library]  Wound without probe %                    0
2  CLLGKNNSC [T7 phage clone of the custom-made library]  Wound without probe %                    0
3  CKSVKNREC [T7 phage clone of the custom-made library]  Wound without probe %                66.39
4  CRKDKC [CRKDKC (CRK), T7 phage clone displaying CRK peptide, homes to angiogenic vessels, lacks tissue penetration]  Wound without probe %                 1.39
5  CRGDKGPDC [CRGDKGPDC (iRGD), T7 phage clone displaying tissue-penetrating homing peptide iRGD]  Wound without probe %                 5.39
6  CARSKNKDC [CARSKNKDC (CAR), T7 phage clone displaying known wound-homing, tissue-penetrating peptide CAR]  Wound without probe %                 7.43
7  CERESTKIC [T7 phage clone of the custom-made library]  Wound without probe %                14.42
8  CAELNDGLC [T7 phage clone of the custom-made library]  Wound without probe %                 4.98
